- tested_on: hP2X4 (human purinergic P2X receptor subtype 4) (Homo sapiens, UniProt Q99571)
- Sequence (Q99571 1-404 isoform Q99571-2): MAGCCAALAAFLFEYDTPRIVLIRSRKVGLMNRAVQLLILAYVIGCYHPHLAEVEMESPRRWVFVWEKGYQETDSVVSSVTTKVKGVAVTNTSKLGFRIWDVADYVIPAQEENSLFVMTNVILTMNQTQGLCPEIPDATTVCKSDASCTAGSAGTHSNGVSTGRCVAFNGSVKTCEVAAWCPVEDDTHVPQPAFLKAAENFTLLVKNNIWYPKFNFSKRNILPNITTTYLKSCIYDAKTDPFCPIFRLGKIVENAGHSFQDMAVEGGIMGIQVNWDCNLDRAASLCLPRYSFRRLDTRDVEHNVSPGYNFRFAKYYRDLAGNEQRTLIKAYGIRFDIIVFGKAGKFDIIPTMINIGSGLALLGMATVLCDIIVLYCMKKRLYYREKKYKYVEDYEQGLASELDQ
- test_context: P2X4 IC50 (nM), HEK293 cells stably expressing hP2X4; agonist BZ-ATP 2.5 μM; FLIPR calcium
assay_endpoint: IC50

| compound | assay_endpoint | value |
| --- | --- | --- |
| Cc1ccc(Oc2nccc3c(S(N)(=O)=O)cc(NC(=O)Cc4ccccc4Cl)cc23)cc1 | IC50 | 10 to 50 nM |

// query Entry under review: NS(=O)(=O)c1cc(NC(=O)Cc2ccccc2Cl)cc2nc(N3CCOCC3)ccc12 . Reported IC50?
// result 50 to 200 nM

// query Entry under review: NS(=O)(=O)c1cc(NC(=O)Cc2ccccc2Cl)cc2c1CCN(C(=O)C1CC1)C2 . Reported IC50?
// result < 10 nM

// query Entry under review: NS(=O)(=O)c1cc(NC(=O)Cc2ccccc2Cl)cc2c1CCN(C(=O)C(F)(F)F)C2 . Reported IC50?
// result 10 to 50 nM

// query Entry under review: NS(=O)(=O)c1cc(NC(=O)Cc2ccccc2Cl)cc2nc(OCCO)ccc12 . Reported IC50?
// result 50 to 200 nM

// query Entry under review: N#Cc1ccc2cc(NC(=O)Cc3ccccc3Cl)cc(S(N)(=O)=O)c2c1 . Reported IC50?
// result 10 to 50 nM

// query Entry under review: NS(=O)(=O)c1cc(NC(=O)Cc2ccccc2Cl)cc2c(Cl)cncc12 . Reported IC50?
// result 200 to 5000 nM

// query Entry under review: NS(=O)(=O)c1cc(NC(=O)Cc2ccccc2Cl)cc2cccnc12 . Reported IC50?
// result 10 to 50 nM

// query Entry under review: CC(C)CCOc1nccc2c(S(N)(=O)=O)cc(NC(=O)Cc3ccccc3Cl)cc12 . Reported IC50?
// result 50 to 200 nM

// query Entry under review: N#Cc1cc2c(S(N)(=O)=O)cc(NC(=O)Cc3ccccc3Cl)cc2cn1 . Reported IC50?
// result 10 to 50 nM

// query Entry under review: CN1CCN(c2cc3c(S(N)(=O)=O)cc(NC(=O)Cc4ccccc4Cl)cc3cn2)CC1=O . Reported IC50?
// result 50 to 200 nM

// query Entry under review: NS(=O)(=O)c1cc(NC(=O)Cc2ccccc2Cl)cc2nc(C3CC3)ccc12 . Reported IC50?
// result 200 to 5000 nM

// query Entry under review: CN1CCN(c2cc3c(S(N)(=O)=O)cc(NC(=O)Cc4ccccc4Cl)cc3cn2)CC1 . Reported IC50?
// result 50 to 200 nM

// query Entry under review: COc1nccc2c(S(N)(=O)=O)cc(NC(=O)Cc3ccccc3Cl)cc12 . Reported IC50?
// result < 10 nM

// query Entry under review: COc1nccc2c(S(N)(=O)=O)cc(NC(=O)Cc3c(Cl)ccc(F)c3F)cc12 . Reported IC50?
// result 200 to 5000 nM

// query Entry under review: NS(=O)(=O)c1cc(NC(=O)Cc2ccccc2Cl)cc2cncnc12 . Reported IC50?
// result 50 to 200 nM

---

- tested_on: hP2X4 (human purinergic P2X receptor subtype 4) (Homo sapiens)
- test_context: P2X4 IC50 (nM), HEK293 cells stably expressing hP2X4; agonist BZ-ATP 2.5 μM; FLIPR calcium
assay_endpoint: IC50

| compound | value |
| --- | --- |
| NS(=O)(=O)c1cc(NC(=O)Cc2ccccc2Cl)cc2c(OC(F)(F)F)nccc12 | 50 to 200 nM |
| NS(=O)(=O)c1cc(NC(=O)Cc2ccccc2Cl)cc2ccc(F)nc12 | 50 to 200 nM |
| CN1CCc2c(cc(NC(=O)Cc3ccccc3Cl)cc2S(N)(=O)=O)C1 | 10 to 50 nM |

Now look at this entry.
// query Entry under review: COc1nccc2c(S(N)(=O)=O)cc(NC(=O)Cc3ccccc3OC(F)(F)F)cc12 . Reported IC50?
// result 200 to 5000 nM
